STUDY_TARGET: TrxR in CRAB (Acinetobacter baumannii, UniProt A0A0G4QN87)
Sequence (A0A0G4QN87 1-315): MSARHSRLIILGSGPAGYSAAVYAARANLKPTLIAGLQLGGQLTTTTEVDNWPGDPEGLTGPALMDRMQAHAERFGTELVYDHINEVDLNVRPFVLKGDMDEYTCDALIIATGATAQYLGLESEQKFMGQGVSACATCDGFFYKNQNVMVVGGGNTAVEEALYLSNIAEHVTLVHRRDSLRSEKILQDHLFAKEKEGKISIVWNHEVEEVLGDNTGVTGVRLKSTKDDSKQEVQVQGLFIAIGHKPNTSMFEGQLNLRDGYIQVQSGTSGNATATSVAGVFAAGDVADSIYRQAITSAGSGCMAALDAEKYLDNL
METHOD: Cellular TrxR activity assay
TEST_CONDITIONS: read-out: IC50 inhibition of TrxR activity in CRAB; 2 h treatment of bacteria
pIC50: −log10 of the molar value.
PROPERTY_MEASURED: pIC50

>  <COMPOUND>
CC(=O)OC[C@H]1O[C@@H]([S-])[C@H](OC(C)=O)[C@@H](OC(C)=O)[C@@H]1OC(C)=O.CCP(CC)CC.[Au+] [Auranofin]

>  <PROPERTY_MEASURED>
pIC50

>  <EXPERIMENTAL_RESULT>
5.20

$$$$
